src = paper PMC4309443

Known maximal association level of a selection of binders
# measurement target: recombinant human TAF2, full length (human)
# assay comment: SPR; BIACORE 3000, 25 °C; TAF2 amine-coupled to CM5 (2,500 RU); MBP–TAF8 analytes at 500 nM; 25 mM HEPES-NaOH pH 7.0, 300 mM NaCl, 0.01% NP-40
Report the figure in RU without appending any unit label.

Name the recorded maximal association level for MBP–TAF8 (residues 105–310) (domain or fragment) DTLPAYAKRSQRMVITAPPVTNQPVTPKALTAGQNRPHPPHIPSHFPEFPDPHTYIKTPTYREPVSDYQVLREKAASQRRDVERALTRFMAKTGETQSLFKDDVSTFPLIAARPFTIPYLTALLPSELEMQQMEETDSSEQDEQTDTENLALHISMEDSGAEKENTSVLQQNPSLSGSRNGEENIIDNPYLRPVKKPKIRRKKSLS . 85

Moving on to the next binder.
Name the recorded maximal association level for MBP–TAF8 (residues 141–310) (domain or fragment) PHPPHIPSHFPEFPDPHTYIKTPTYREPVSDYQVLREKAASQRRDVERALTRFMAKTGETQSLFKDDVSTFPLIAARPFTIPYLTALLPSELEMQQMEETDSSEQDEQTDTENLALHISMEDSGAEKENTSVLQQNPSLSGSRNGEENIIDNPYLRPVKKPKIRRKKSLS . 40
